- Tested on: Rattus norvegicus
- Measurement context: acute; oral; mortality
Recorded measurements of LD50, one per entry

Compound	Quantity measured	Assay result
CC1=CC1	LD50	> 235 mg/kg-day

Query block: What reported LD50 corresponds to `CC(C)[C@@H](C)[C@@H](O)[C@H](O)[C@@H](C)[C@H]1CC[C@H]2[C@@H]3COC(=O)[C@H]4C[C@H](O)[C@H](O)C[C@]4(C)[C@H]3CC[C@]12C` on Rattus norvegicus?
Result block: > 5000 mg/kg-day

Query block: Here is the next compound: `C=CCc1ccc(O)c(OC)c1`
Result block: 1930 mg/kg

Query block: Here is the next compound: [Al+3].[Al+3].[O-2].[O-2].[O-2].[O-2].[O-2].[Si+4] [Aluminum oxide silicate (Al2O(SiO4))]
Result block: > 5000 mg/kg
